Ref: the supplement of paper PMC10567573

B1: FBXO3 (parent)
chain: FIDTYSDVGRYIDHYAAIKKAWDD

Variants of: B1
Assay: protein stability index of a GFP-peptide fusion (GPS, HEK-293T) (PSI 1-6); higher = more stable;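 also: lentivirally expressed fusions sorted by FACS into six bins by GFP to DsRed ratio, PSI derived from sequencing read proportions per bin multiplied by bin number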
Details: c terminus: a fixed tail appended
property: protein stability index
Give the figure by itself; no unit, no explanation.

Below, each entry is followed by its recorded protein stability index result.
I12W; 1.41
A21R; 1.96
R10P; 1.78

In: Consider the variant shown here: W22S What is its recorded protein stability index?
Out: 1.75

In: Same question, D24I this time
Out: 2.86

In: // next record T4Q
Out: 1.59

In: Consider next the variant I2C in the same way.
Out: 2.4

In: Follow-up entry: A21H
Out: 1.61

In: Same thing, different variant: D24F
Out: 1.67

In: // repeat for I2W and report
Out: 2.45

In: Further, for A21T ?
Out: 2.23

In: How about S6D ?
Out: 1.69
